molecular target: HDAC2 (Homo sapiens, UniProt Q92769); construct: purchased BPS Bioscience 50002; assay: HDAC-Glo I/II assay, HDAC2; type: biochemical; conditions: recombinant human HDAC2, HDAC-Glo; read-out: pIC50 HDAC2 Glo (converted)
Sequence (Q92769 whole entry): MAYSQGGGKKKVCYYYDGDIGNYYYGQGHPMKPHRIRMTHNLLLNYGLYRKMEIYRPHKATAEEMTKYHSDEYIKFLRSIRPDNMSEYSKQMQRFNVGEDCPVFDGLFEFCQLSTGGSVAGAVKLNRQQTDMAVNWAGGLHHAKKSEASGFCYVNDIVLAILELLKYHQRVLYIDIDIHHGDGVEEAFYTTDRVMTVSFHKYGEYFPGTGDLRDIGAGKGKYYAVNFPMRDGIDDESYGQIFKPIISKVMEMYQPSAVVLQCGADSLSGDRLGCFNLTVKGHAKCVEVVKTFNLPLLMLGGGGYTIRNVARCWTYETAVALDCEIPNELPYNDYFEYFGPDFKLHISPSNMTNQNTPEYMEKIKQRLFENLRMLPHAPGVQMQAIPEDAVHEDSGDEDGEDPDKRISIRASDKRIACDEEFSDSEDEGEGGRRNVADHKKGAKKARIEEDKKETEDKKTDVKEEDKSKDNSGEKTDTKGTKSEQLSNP
Measured parameter: IC50 (µM)

> print(dat)
                       structure.as.smiles                           target.desc  measured.parameter  unit.label  relation  numeric.value
1  CN(CCCC(=O)NO)CCNC(=O)c1ccc(O)c2ccccc12  HDAC2 (Homo sapiens, UniProt Q92769)                IC50          µM         =           15.8
2          CN(CCCNC(=O)c1ccccc1)CCCC(=O)NO  HDAC2 (Homo sapiens, UniProt Q92769)                IC50          µM         =           79.4
3        CN(CCCC(=O)NO)CCNC(=O)c1ccc(N)cc1  HDAC2 (Homo sapiens, UniProt Q92769)                IC50          µM         >            100
4       CN(CCCC(=O)NO)CCNS(=O)(=O)c1ccccc1  HDAC2 (Homo sapiens, UniProt Q92769)                IC50          µM         >            100

###

# maps each entry to its log10 IC50
Target: HDAC8 (Homo sapiens, UniProt Q9BY41)
Sequence (Q9BY41 1-377): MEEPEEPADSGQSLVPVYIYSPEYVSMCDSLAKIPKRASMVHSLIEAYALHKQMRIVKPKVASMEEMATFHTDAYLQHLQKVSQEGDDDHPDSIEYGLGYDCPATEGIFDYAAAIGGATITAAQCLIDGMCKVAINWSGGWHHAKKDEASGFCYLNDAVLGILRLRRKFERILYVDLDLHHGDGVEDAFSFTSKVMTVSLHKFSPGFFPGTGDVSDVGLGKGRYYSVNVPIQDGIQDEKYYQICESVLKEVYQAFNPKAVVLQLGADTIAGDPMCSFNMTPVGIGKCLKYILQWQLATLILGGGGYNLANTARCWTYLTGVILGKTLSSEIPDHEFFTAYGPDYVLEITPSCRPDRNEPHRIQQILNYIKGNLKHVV
Experiment: HDAC-Glo I/II assay, HDAC8
Type: biochemical
Design: purchased BPS Bioscience 50008
Conditions: recombinant human HDAC8, HDAC-Glo; read-out: pIC50 HDAC8 Glo (converted)
Measured parameter: log10 IC50 (log10 of the value in µM)

> print(dat)
                        structure.as.smiles  numeric.value
1        CC(C)N(CCCC(=O)NO)CCC(=O)Nc1ccccc1           0.70
2            CN(CCCC(=O)NO)CCC(=O)Nc1ccccc1           0.60
3           CN(CCCC(=O)NO)CCCC(=O)Nc1ccccc1           1.40
4          CN(CCCC(=O)NO)CCc1nc2ccccc2[nH]1           0.70
5          O=C(CC1CN(CCC(=O)Nc2ccccc2)C1)NO           1.30
6   Cc1[nH]c2ccccc2c1C(=O)NCCN(C)CCCC(=O)NO           0.70
7  COc1ccc(C(=O)NCCN(C)CCCC(=O)NO)c2ccccc12           0.10
8         CN(CCCC(=O)NO)CCNC(=O)c1ccc(N)cc1           1.30
